Source listed as PubChem BioAssay (NCI).

For each of the compounds below, state its TGI.
- Tested on: OVCAR-8 ovarian
- test.method.notes: NCI tumour cell line growth inhibition, 48 h

Please state recorded TGI (tested on OVCAR-8 ovarian) of Cc1[nH]c2cc(F)ccc2c1-c1nc2c3cccnc3c3ncccc3c2[nH]1
1.22 µM

Please state recorded TGI (tested on OVCAR-8 ovarian) of Cc1ccc(-n2nnnc2-c2cnc(N3CCOCC3)nc2-c2cccc(C(F)(F)F)c2)cc1
> 22.5 µM

Please state recorded TGI (tested on OVCAR-8 ovarian) of COc1ccc(CCN2CCC(CN(C)Cc3cnn(-c4ccccc4)c3)CC2)cc1
37.5 µM

Please state recorded TGI (tested on OVCAR-8 ovarian) of C[C@]12CC(c3ccccc3O1)C(C(=O)Nc1nc(C34CC5CC(CC(C5)C3)C4)cs1)C(=O)N2 (stereo partly specified)
> 100 µM

Please state recorded TGI (tested on OVCAR-8 ovarian) of COc1nc2ccc(COc3ccc(C(=O)O)cc3)cc2nc1OC
> 100 µM

Please state recorded TGI (tested on OVCAR-8 ovarian) of Br[C@@H]1[C@H]2c3nc4ccccc4nc3[C@@H]1C[C@H]2Br
> 100 µM

Please state recorded TGI (tested on OVCAR-8 ovarian) of Cn1cc(C(=O)c2ccccc2)cc(C(=O)c2ccccc2)c1=O
> 100 µM

Please state recorded TGI (tested on OVCAR-8 ovarian) of C/C(=N\Nc1nc2ccccc2s1)c1cc2ccccc2cn1
16.5 µM

Please state recorded TGI (tested on OVCAR-8 ovarian) of C=C1C(=O)OC2CC(C)C3C4OC4C(O)C3(C)C(O)C12 (stereo unspecified)
91.6 µM

Please state recorded TGI (tested on OVCAR-8 ovarian) of COc1cc2c(/C=C3/C(=O)N(C)c4ccc(O)cc43)c(Cl)[nH]c2cc1C
15 µM

Please state recorded TGI (tested on OVCAR-8 ovarian) of O=c1c(Cc2ccc(Cl)cc2)nnc2sc(-c3ccc(-c4ccc(Cl)cc4Cl)o3)nn12
> 100 µM

Please state recorded TGI (tested on OVCAR-8 ovarian) of C/C(=C/CC[C@]1(CO)CC[C@]2(C)[C@H](CC[C@@H]3[C@@]4(C)CC[C@H](OC5OC(CO)C(O)C(O)C5OC5OC(CO)C(O)C(O)C5O)C(C)(C)[C@@H]4CC[C@]32C)[C@H]1O)CO (stereo partly specified)
> 100 µM

Please state recorded TGI (tested on OVCAR-8 ovarian) of C/C(N=NS(=O)(=O)c1ccc([N+](=O)[O-])cc1)=C1\C=CC=CN1O
> 100 µM

Please state recorded TGI (tested on OVCAR-8 ovarian) of C=C(C(=C)P(=S)(C(C)C)C(C)C)P(=S)(C(C)C)C(C)C
> 100 µM

Please state recorded TGI (tested on OVCAR-8 ovarian) of C=C=CC(NC(=O)c1ccccc1)(C(=O)O)C(F)(F)F (stereo unspecified)
> 100 µM

Please state recorded TGI (tested on OVCAR-8 ovarian) of OC1(c2ccc(Cl)cc2)c2ccccc2-c2nc3ccccc3n21 (stereo unspecified)
> 100 µM

Please state recorded TGI (tested on OVCAR-8 ovarian) of Cc1cccc(CC(Cc2ccc(C)cc2C(=O)O)C(=O)O)c1 (stereo unspecified)
> 100 µM

Please state recorded TGI (tested on OVCAR-8 ovarian) of COc1cc(Cl)cc(-c2nn(-c3cccc(NC(=O)Nc4ccc(Cl)c(Cl)c4)c3)cc2-c2ccncc2)c1
11.2 µM

Please state recorded TGI (tested on OVCAR-8 ovarian) of O=c1[nH]cnc2c(COCCO)c[nH]c12
> 100 µM

Please state recorded TGI (tested on OVCAR-8 ovarian) of Cc1ccc(C2(c3ccc(F)cc3)OC(=O)c3ccccc32)c(O)c1 (stereo unspecified)
48 µM

Please state recorded TGI (tested on OVCAR-8 ovarian) of CCn1c(CCl)nc2c1C(=O)c1ccccc1C2=O
2.95 µM
